# credit: PubChem BioAssay

Assay: modulators of HCV replicon luciferase signal, primary screen, HCV replication inhibitor project, Huh7 cells, luciferase reporter (AID 1109);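 further: huh7 hepatoma cells harbouring a luciferase neomycin HCV replicon reporter; luciferase luminescence as measure of HCV replicon replication; test concentration not given here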
Details: 48 h, higher = more signal
metric name: z-score

>>> value_reported("O=C(CS)NCCCCCCNC(=O)[C@H]1C[C@H]2C(=O)N[C@@H](Cc3ccccc3)C(=O)N2[C@H]1c1cccc(OCCO)c1")
-0.963
>>> value_reported("COc1ccc([Si](C)(C)[C@H]2[C@H](CCn3cc(CCO)nn3)O[C@@]3(C(=O)N(Cc4ccc(N5C(=O)c6cccc7cccc5c67)cc4)c4ccccc43)[C@@H]2C)cc1")
-5.13
>>> value_reported("COCCOC(=O)N1C(=O)[C@@]2(c3cc(C#Cc4ccc(OC)cc4)ccc31)[C@H](C(=O)N1CCCCCCC1)[C@H]1C(=O)O[C@H](c3ccccc3)[C@H](c3ccccc3)N1[C@@H]2c1ccc(O)cc1")
-0.949
>>> value_reported("C=CCC(OC(C)=O)[C@@H]1[C@@H](N(Cc2cc3ccccc3o2)C(=O)Cc2ccc(F)cc2)c2cc(OCCCO)ccc2N1C(=O)c1ccc2ccccc2n1 (stereo partly specified)")
0.476
>>> value_reported("CON(C)C(=O)C=C1C[C@@H](c2cccc(Cl)c2)O[C@@H](c2cccc(Cl)c2)O1")
-3.11
>>> value_reported("CC1CC/C=C\\[C@H]2OC34C=CCN(CCN5CCOCC5)C(=O)[C@H]3N(CCO)C(=O)[C@@H]4C2C(=O)O1 (stereo partly specified)")
-0.504
